The reported numbers originate from PubChem BioAssay (NCI).

Test system: MALME-3M melanoma
Assay: NCI-60 one-dose screen, 48 h (100 = growth as untreated, 0 = no growth, -100 = all killed)
Details: 10 µM unless noted
About 83,000 compounds went through this panel and 20% of them were active in at least one assay; those are over-represented in the sample as a whole.

[
  {
    "COMPOUND": "COc1cc(C2C3=C(COC3=O)Nc3c2ccc2c3CCCC2)cc2c1OCO2 (centres undefined)",
    "growth / %": 92.1
  },
  {
    "COMPOUND": "COc1ccc(OC)c(/C=C2\\Oc3cc(OCCN4CCCC4)ccc3C2=O)c1",
    "growth / %": 104
  },
  {
    "COMPOUND": "CCCOC(=O)C1(O)CCCC1",
    "growth / %": 96.3
  },
  {
    "COMPOUND": "CC1CCc2c(sc(NC(=O)CSc3nnc4ccccn34)c2C(N)=O)C1 (centres undefined)",
    "growth / %": 181
  },
  {
    "COMPOUND": "CC(C)C[C@H](NC(=O)Cn1ccc(NCc2ccccc2)cc1=O)B(O)O",
    "growth / %": -21.2
  },
  {
    "COMPOUND": "CCNC(=O)C1CCCN1C(=O)C(CCCN=C(N)N)NC(=O)C(CC(C)C)NC(=O)C(CC(C)C)NC(=O)C(Cc1ccc(O)cc1)NC(=O)C(CO)NC(=O)C(Cc1c[nH]c2ccccc12)NC(=O)C(Cc1cnc[nH]1)NC(=O)C1CCC(=O)N1 (centres undefined)",
    "growth / %": 122
  },
  {
    "COMPOUND": "CCC#CC[C@H]1C/C=C2/C(=O)C=C[C@@H]2C/C=C\\CCCC(=O)O1",
    "growth / %": 1.52
  },
  {
    "COMPOUND": "CC/C=C\\C[C@H](O)C/C=C1/C(=O)C(Cl)=C[C@@H]1C/C=C\\CCCC(=O)OC",
    "growth / %": -9.56
  },
  {
    "COMPOUND": "CCN1C(=O)/C(=c2\\sc3n(c2=O)C2C(NN=3)N(CC)C(=S)N2CC)c2ccccc21 (centres undefined)",
    "growth / %": 93.2
  },
  {
    "COMPOUND": "Cc1cccc2cc(/C=C/C(=O)/C=C/c3ccc(Cl)cc3)c(=O)[nH]c12",
    "growth / %": 106
  },
  {
    "COMPOUND": "CC(=O)Nc1ccc2c(c1)/C(=C\\C=C/c1ccc([N+](C)(C)C)cc1)c1ccccc1-2",
    "growth / %": 86.5
  },
  {
    "COMPOUND": "CCNc1nc(N2CC(=O)Nc3cc(OC)ccc32)c2ccccc2n1",
    "growth / %": 51
  },
  {
    "COMPOUND": "O=C1Nc2ccc(Br)cc2C1=N/C=c1\\[nH]c(=O)/c(=C/c2ccc(Cl)cc2)s1",
    "growth / %": 93.6
  },
  {
    "COMPOUND": "O=[N+]([O-])c1c(S(=O)(=O)O)cc2cc(S(=O)(=O)O)ccc2c1[N+](=O)[O-]",
    "growth / %": 91
  },
  {
    "COMPOUND": "C=CCOc1ccc(/C(O)=C2\\C(=O)C(=O)N(c3nccs3)C2c2ccccc2F)cc1 (centres undefined)",
    "growth / %": 92.1
  },
  {
    "COMPOUND": "CCOC(=O)C(Cc1ccccc1)n1c(O)c(C=Nc2ccc(C(=O)OCCN(CC)CC)cc2)sc1=O (centres undefined)",
    "growth / %": 90.1
  },
  {
    "COMPOUND": "CCCCNc1nnc(-c2cc(-c3cc4ccccc4o3)nn2-c2ccccc2)o1",
    "growth / %": 93.1
  },
  {
    "COMPOUND": "COc1cc(OC)cc(-c2n[nH]nc2-c2ccc3c(c2)OCO3)c1",
    "growth / %": 67.7
  },
  {
    "COMPOUND": "CCN(Cc1ccccc1)c1ccc(SC#N)cc1",
    "growth / %": 88
  }
]
